Answer each item with its documented TGI.
Test system: A498 renal
Test name: NCI tumour cell line growth inhibition, 48 h

Read the entry O=C1CCCC2COc3ccc(O)c1c32 (stereo unspecified) and write its reported TGI.
> 100 µM

Read the entry NC(=O)c1ccc(NC(=O)c2oc3ccccc3c2-c2cnn(-c3ccccc3)c2)cc1 and write its reported TGI.
> 100 µM

Read the entry Cc1[nH]nc(C(=O)N/N=C/c2cccs2)c1N=NN(C)C and write its reported TGI.
91 µM

Read the entry CC(=O)Oc1ccc(-c2c(OC(C)=O)c(OC(C)=O)c(-c3ccc(OC(C)=O)c(OC(C)=O)c3)c(OC(C)=O)c2OC(C)=O)cc1 and write its reported TGI.
> 100 µM

Read the entry NC(=NC1C2CC3CC(C2)CC1C3)Nc1ccc(I)cc1 (stereo unspecified) and write its reported TGI.
6.77 µM

Read the entry Cc1cc(=O)[nH]c(S(=O)(=O)NC(=S)Nc2ccc(Br)cc2)n1 and write its reported TGI.
> 100 µM

Read the entry CC(=O)Nc1[nH]c(=O)[nH]c(=O)c1N(C(C)=O)C(C)=O and write its reported TGI.
> 100 µM

Read the entry Cc1cccc(/C=N/NC(=S)NC(C)(C)C)n1 and write its reported TGI.
> 100 µM

Read the entry CC(C)=CCC/C(C)=C/CCC1(C)C2COC(=O)C21 (stereo unspecified) and write its reported TGI.
> 100 µM

Read the entry COc1ccccc1OCC(O)CO (stereo unspecified) and write its reported TGI.
> 100 µM

Read the entry O=C(NC(Cc1c[nH]c2ccccc12)C(=O)O)/C(=C/c1ccccc1)NC(=O)c1ccccc1 (stereo unspecified) and write its reported TGI.
> 100 µM

----------
Test system: NCI-H226 lung
Test name: NCI tumour cell line growth inhibition, 48 h
Readout label: TGI

Read the entry COc1cccc(C2c3cc4c(cc3OC(N3CCOCC3)C2C)OCO4)c1 (stereo not given) and write its reported TGI.
43.4 µM

Read the entry CC(C)(CN1CCCCC1)C(=O)CC(SCCS(=O)(=O)O)c1ccc(Cl)c(Cl)c1 (stereo not given) and write its reported TGI.
39.1 µM

Read the entry C(=C1/CCCCC([n+]2ccccc2)=N1)/c1ccccc1 and write its reported TGI.
> 100 µM

Read the entry CC(C)(C)OC(=O)N[C@@H](Cc1ccccc1)C(=O)N1CC[C@@H](C(=O)N2[C@H]3CC4CC[C@@]3(CS2(=O)=O)C4(C)C)N1 and write its reported TGI.
> 100 µM

Read the entry O=c1c2c(=NCCCN3CCCC3)cc3c(=O)n(CCCN4CCCC4)c(=O)c4c(NCCCN5CCCC5)cc(c(O)n1CCCN1CCCC1)c2c4-3 and write its reported TGI.
7.8 µM

Read the entry Fc1cc(Nc2ccc3c(OCCCN4CCOCC4)cccc3n2)ccc1Cl and write its reported TGI.
7.83 µM

Read the entry O=[N+]([O-])C(=C(c1ccccc1)c1ccccc1)[N+](=O)[O-] and write its reported TGI.
61.5 µM

Read the entry O=C(O)c1oc2ccc([N+](=O)[O-])c3c2c1CCC3 and write its reported TGI.
> 100 µM

Read the entry C/C(=N\N=C(N)N)c1sc(-c2nc(C)c(/C(C)=N/N=C(N)N)s2)nc1C and write its reported TGI.
> 100 µM

Read the entry NC(=O)Cn1c(=O)[nH]c(=O)c2[nH]cnc21 and write its reported TGI.
> 100 µM

Read the entry CCCC/C(C)=N/NC(N)=S and write its reported TGI.
> 100 µM

Read the entry CN1C(C(=O)Nc2ccccn2)=C(O)c2ccccc2S1(=O)=O and write its reported TGI.
> 100 µM

Read the entry COc1cc(C(=O)c2c(-c3ccccc3)oc3ccccc23)cc(OC)c1O and write its reported TGI.
37.2 µM

Read the entry CC(=O)Nc1[nH]c(=O)[nH]c(=O)c1N(C(C)=O)C(C)=O and write its reported TGI.
> 100 µM

Read the entry O=C(O)c1c(Cl)c(Cl)c(Cl)c(Cl)c1-c1c2cc(I)c(=O)c(I)c-2oc2c(I)c(O)c(I)cc12 and write its reported TGI.
90.9 µM

Read the entry O=C(O)C1(Cc2ccc3c(c2)CCC3)Cc2cc3c(cc2C1)CCC3 and write its reported TGI.
> 100 µM

Read the entry CCCCCCCCCCCOCCC1C(C(C)OCCN2CCCC2)OC2OC(C)(C)OC21 (stereo not given) and write its reported TGI.
24.5 µM

Read the entry C=C(C)[C@@H]1CC[C@]2(C#N)CC[C@]3(C)[C@H](CC[C@@H]4[C@@]5(C)CCCNC(C)(C)[C@@H]5CC[C@]43C)[C@@H]12 and write its reported TGI.
9.79 µM

Read the entry O=C1CCCC2COc3ccc(O)c1c32 (stereo not given) and write its reported TGI.
> 100 µM

Read the entry Cn1cnc([N+](=O)[O-])c1Sc1nncc2[nH]cnc12 and write its reported TGI.
> 100 µM
